Provide the recorded inhibition at 1.1 µM for the entries that follow.
STUDY_TARGET: HIV-1 protease (Human immunodeficiency virus type 1 group M subtype B)
EXPERIMENT_NOTES: biochemical
RUN_PARAMETERS: Table I; Dose 1.100 μM; read-out: Protease % Inhib
Give the number; % is assumed, so skip it.

Give the value of inhibition at 1.1 µM reported for the following: CCCC1(CCc2ccccc2)CC(O)=C(C(c2cccc(NS(=O)(=O)c3ccc(F)cc3)c2)C2CC2)C(=O)O1 (stereo not shown) [Example 59]
102

Give the value of inhibition at 1.1 µM reported for the following: O=c1oc(C(CC2CC2)CC2CC2)cc(O)c1C(c1cccc(NS(=O)(=O)c2ccc3ccccc3n2)c1)C1CC1 (stereo not shown) [Example 103]
96.9

Give the value of inhibition at 1.1 µM reported for the following: O=c1oc(C(CC2CC2)CC2CC2)cc(O)c1C(c1cccc(NS(=O)(=O)c2ccccn2)c1)C1CC1 (stereo not shown) [Example 99]
108

Give the value of inhibition at 1.1 µM reported for the following: CC[C@H](Cc1ccccc1)c1cc(O)c(C(c2cccc(NS(=O)(=O)c3cn(C)cn3)c2)C2CC2)c(=O)o1 (single isomer, unassigned) [Example 138]
101

Give the value of inhibition at 1.1 µM reported for the following: CCCC1(CCC)CC(O)=C(C(c2cccc(NS(=O)(=O)c3cccc4cccnc34)c2)C2CC2)C(=O)O1 (stereo not shown) [Example 49]
120

Give the value of inhibition at 1.1 µM reported for the following: CCC(CCBr)c1cc(O)c(C(c2cccc(NS(=O)(=O)c3cn(C)cn3)c2)C2CC2)c(=O)o1 (stereo not shown) [Example 108]
102

Give the value of inhibition at 1.1 µM reported for the following: CC[C@H](Cc1ccccc1)c1cc(O)c(C(c2cccc(NS(=O)(=O)c3nc4ccccc4[nH]3)c2)C2CC2)c(=O)o1 (stereo partly shown) [Example 146]
103

---

STUDY_TARGET: HIV-1 protease (Human immunodeficiency virus type 1 group M subtype B)
EXPERIMENT_NOTES: biochemical
RUN_PARAMETERS: Table II; enzyme HIV-1; DOSE 0.123 (unit not given)
# note: boundary value 70% maps to false; PROTEASE % INHIB. below it maps to true

# strict comparison: is reported PROTEASE % INHIB. < 70%? input = CC(C)(C)C(C1=C(O)CC(CCc2ccccc2)(CCc2ccccc2)OC1=O)c1cccc(NS(=O)(=O)c2ccc(N)cn2)c1 (single isomer, unassigned) [Example 355]
true

# strict comparison: is reported PROTEASE % INHIB. < 70%? input = CCCC1(CCC)CC(O)=C(C(c2cccc(NS(=O)(=O)c3cn(C)cn3)c2)C(C)(C)C)C(=O)O1 (single isomer, unassigned) [Example 319]
true

# strict comparison: is reported PROTEASE % INHIB. < 70%? input = CCC[C@]1(CCc2ccc(F)cc2)CC(O)=C([C@H](c2cccc(NS(=O)(=O)c3cn(C)cn3)c2)C(C)(C)C)C(=O)O1 (single isomer, unassigned) [Example 352]
true

# strict comparison: is reported PROTEASE % INHIB. < 70%? input = CCCC1(CCC)CC(O)=C(C(c2cccc(NS(=O)(=O)c3cn(C)cn3)c2)C(C)(C)C)C(=O)O1 (single isomer, unassigned) [Example 318]
false

# strict comparison: is reported PROTEASE % INHIB. < 70%? input = CCC[C@@]1(CCc2ccc(F)cc2)CC(O)=C([C@H](c2cccc(NS(=O)(=O)c3cn(C)cn3)c2)C(C)(C)C)C(=O)O1 (single isomer, unassigned) [Example 351]
true

# strict comparison: is reported PROTEASE % INHIB. < 70%? input = Cn1cnc(S(=O)(=O)Nc2cccc(C(C3=C(O)CC(CCc4ccccc4)(CCC(F)(F)F)OC3=O)C(C)(C)C)c2)c1 (single isomer, unassigned) [Example 276]
true

# strict comparison: is reported PROTEASE % INHIB. < 70%? input = CCC(C1=C(O)CC(CCc2ccccc2)(CCc2ccccc2)OC1=O)c1cccc(NS(=O)(=O)c2ccc(C#N)cn2)c1 (stereo not shown) [Example 331]
false

# strict comparison: is reported PROTEASE % INHIB. < 70%? input = CCC[C@@]1(CCc2ccccc2)CC(O)=C([C@H](CC)c2cccc(NS(=O)(=O)c3ccc(N)cn3)c2)C(=O)O1 (single isomer, unassigned) [Example 315]
false

# strict comparison: is reported PROTEASE % INHIB. < 70%? input = CCC(C1=C(O)CC(CCc2ccccc2)(CCc2ccccc2)OC1=O)c1cccc(NS(=O)(=O)c2cn(C)cn2)c1 (stereo not shown) [Example 330]
false

# strict comparison: is reported PROTEASE % INHIB. < 70%? input = CCC[C@@]1(CCc2ccccc2)CC(O)=C([C@@H](c2cccc(NS(=O)(=O)c3cn(C)cn3)c2)C(C)(C)C)C(=O)O1 (single isomer, unassigned) [Example 308]
false

# strict comparison: is reported PROTEASE % INHIB. < 70%? input = CCCC1(CCc2ccc(F)cc2)CC(O)=C(C(c2cccc(NS(=O)(=O)c3cccc4cccnc34)c2)C(C)(C)C)C(=O)O1 (stereo not shown) [Example 329]
true

# strict comparison: is reported PROTEASE % INHIB. < 70%? input = CC(C)(C)C(C1=C(O)CC(CCc2ccccc2)(CCc2ccccc2)OC1=O)c1cccc(NS(=O)(=O)c2ccc(C#N)cn2)c1 (stereo not shown) [Example 344]
true

# strict comparison: is reported PROTEASE % INHIB. < 70%? input = Nc1ccc(S(=O)(=O)Nc2cccc(CC3=C(O)CC(CCc4ccccc4)(CCc4ccccc4)OC3=O)c2)nc1 [Example 354]
true

# strict comparison: is reported PROTEASE % INHIB. < 70%? input = Cn1cnc(S(=O)(=O)Nc2cccc(C(C3=C(O)CC(CCc4ccccc4)(CCC(F)(F)F)OC3=O)C(C)(C)C)c2)c1 (single isomer, unassigned) [Example 273]
true

---

Lab note: Ki readings collected with single chain tethered (tandem) HIV protease (HIV-1 M:B_HXB2R, UniProt P04585) for the following molecules.
Give the number; nM is assumed, so skip it.

Give the value of Ki reported for the following: CCC[C@]1(CCc2ccccc2)CC(O)=C([C@H](CC)c2cccc(NS(=O)(=O)c3cn(C)cn3)c2)C(=O)O1 (single isomer, unassigned) [Example 340]
0.06

Give the value of Ki reported for the following: CCCC1(CCC)CC(O)=C(C(CC)c2cccc(NS(=O)(=O)c3ccc(N)cn3)c2)C(=O)O1 (single isomer, unassigned) [Example 363]
0.083

Give the value of Ki reported for the following: Cn1cnc(S(=O)(=O)Nc2cccc(C(C3=C(O)CC(CCc4ccccc4)(CCC(F)(F)F)OC3=O)C(C)(C)C)c2)c1 (single isomer, unassigned) [Example 273]
2.3

Give the value of Ki reported for the following: CC(C)(C)C(C1=C(O)CC(CCc2ccccc2)(CCC(F)(F)F)OC1=O)c1cccc(NS(=O)(=O)c2ccc(C#N)cn2)c1 (single isomer, unassigned) [Example 272]
3.6

Give the value of Ki reported for the following: CCC(C1=C(O)CC(CCc2ccccc2)(CCc2ccccc2)OC1=O)c1cccc(NS(=O)(=O)c2cn(C)cn2)c1 (centres unmarked) [Example 330]
0.524

Give the value of Ki reported for the following: CCC[C@@]1(CCc2ccccc2)CC(O)=C([C@@H](c2cccc(NS(=O)(=O)c3ccc(C#N)cn3)c2)C(C)(C)C)C(=O)O1 (single isomer, unassigned) [Example 300]
0.1

Give the value of Ki reported for the following: CCC[C@@]1(CCc2ccc(F)cc2)CC(O)=C([C@H](CC)c2cccc(NS(=O)(=O)c3ccc(C#N)cn3)c2)C(=O)O1 (single isomer, unassigned) [Example 365]
0.023

Give the value of Ki reported for the following: CCC(C1=C(O)CC(CCc2ccccc2)(CCc2ccccc2)OC1=O)c1cccc(NS(=O)(=O)c2cc(C(F)(F)F)ccn2)c1 (single isomer, unassigned) [Example 290]
1.88

Give the value of Ki reported for the following: Cn1cnc(S(=O)(=O)Nc2cccc(C(C3=C(O)CC(CCc4ccccc4)(CCc4ccccc4)OC3=O)C(C)(C)C)c2)c1 (single isomer, unassigned) [Example 357]
48.5

Give the value of Ki reported for the following: Cn1cnc(S(=O)(=O)Nc2cccc(C(C3=C(O)CC(CCc4ccccc4)(CCC(F)(F)F)OC3=O)C(C)(C)C)c2)c1 (single isomer, unassigned) [Example 270]
0.024

Give the value of Ki reported for the following: CCC[C@@]1(CCc2ccccc2)CC(O)=C([C@H](CC)c2cccc(NS(=O)(=O)c3ccc(C#N)cn3)c2)C(=O)O1 (single isomer, unassigned) [Example 335]
0.04

---

STUDY_TARGET: HIV-1 protease (Human immunodeficiency virus type 1 group M subtype B)
EXPERIMENT_NOTES: biochemical
RUN_PARAMETERS: read-out: Protease % Inhib
Provide the recorded inhibition at 0.123 µM for the entries that follow.
Give the number; % is assumed, so skip it.

Give the value of inhibition at 0.123 µM reported for the following: CCCCCC1(CCCCC)CC(O)=C(C(CC)c2cccc(NS(=O)(=O)c3cn(C)cn3)c2)C(=O)O1 (stereo not shown)
68.9

Give the value of inhibition at 0.123 µM reported for the following: CCCC1(CCc2ccccc2)CC(O)=C(C(CC)c2cccc(NS(=O)(=O)c3ccc(F)cc3)c2)C(=O)O1 (stereo not shown) [Example 93A]
59.5

Give the value of inhibition at 0.123 µM reported for the following: CCCC1(CCc2ccccc2)CC(O)=C(C(c2cccc(NS(=O)(=O)c3ccc(C#N)cn3)c2)C(C)(C)C)C(=O)O1 (stereo not shown)
70.8

Give the value of inhibition at 0.123 µM reported for the following: COc1ccc2c(O)c(C(c3cccc(NS(=O)(=O)c4cn(C)cn4)c3)C3CC3)c(=O)oc2c1 (stereo not shown)
11.5

Give the value of inhibition at 0.123 µM reported for the following: CCCC1(CCc2ccccc2)CC(O)=C(C(CC)c2cccc(NS(=O)(=O)c3cn(C)cn3)c2)C(=O)O1 (stereo not shown)
103

Give the value of inhibition at 0.123 µM reported for the following: CCCC1(CCc2ccccc2)CC(O)=C(C(CC)c2cccc(NS(=O)(=O)c3ccc(C#N)cn3)c2)C(=O)O1 (stereo not shown)
98.1

Give the value of inhibition at 0.123 µM reported for the following: O=c1oc(C(CC2CC2)CC2CC2)cc(O)c1C(c1cccc(NS(=O)(=O)c2ccc(F)cc2)c1)C1CC1 (stereo not shown)
75.8

Each recorded value in this set is attributed to patent US6169181A.
